assay: Clearance in dog plasma at 1 mg/kg,iv; type: ADME, organism-based, Canis lupus familiaris
readout-kind: clearance (mL/min/kg)
Give the number; mL/min/kg is assumed, so skip it.

**Query** Find the measured clearance of CC[C@H](C)n1nc(N2CC(C(C)(C)O)C2)c2cnc(Nc3ccnc(-c4cnn(S(=O)(=O)C5CC5)c4)n3)cc21 and report it.
**Result** 13

###

assay: Clearance in mouse plasma at 5 mg/kg,iv; assay type: ADME, organism-based
readout-kind: clearance (mL/min/kg)
Give the number; mL/min/kg is assumed, so skip it.

**Query** Find the measured clearance of CC[C@H](C)n1nc(N2CC(C(C)(C)O)C2)c2cnc(Nc3ccnc(-c4cnn(S(=O)(=O)C5CC5)c4)n3)cc21 and report it.
**Result** 104

###

Data export: log10 IC50 values recorded with Epidermal growth factor receptor (Homo sapiens, UniProt P00533, L858R/T790M).
Sequence (P00533 25-1210 T790M/L858R limits assumed): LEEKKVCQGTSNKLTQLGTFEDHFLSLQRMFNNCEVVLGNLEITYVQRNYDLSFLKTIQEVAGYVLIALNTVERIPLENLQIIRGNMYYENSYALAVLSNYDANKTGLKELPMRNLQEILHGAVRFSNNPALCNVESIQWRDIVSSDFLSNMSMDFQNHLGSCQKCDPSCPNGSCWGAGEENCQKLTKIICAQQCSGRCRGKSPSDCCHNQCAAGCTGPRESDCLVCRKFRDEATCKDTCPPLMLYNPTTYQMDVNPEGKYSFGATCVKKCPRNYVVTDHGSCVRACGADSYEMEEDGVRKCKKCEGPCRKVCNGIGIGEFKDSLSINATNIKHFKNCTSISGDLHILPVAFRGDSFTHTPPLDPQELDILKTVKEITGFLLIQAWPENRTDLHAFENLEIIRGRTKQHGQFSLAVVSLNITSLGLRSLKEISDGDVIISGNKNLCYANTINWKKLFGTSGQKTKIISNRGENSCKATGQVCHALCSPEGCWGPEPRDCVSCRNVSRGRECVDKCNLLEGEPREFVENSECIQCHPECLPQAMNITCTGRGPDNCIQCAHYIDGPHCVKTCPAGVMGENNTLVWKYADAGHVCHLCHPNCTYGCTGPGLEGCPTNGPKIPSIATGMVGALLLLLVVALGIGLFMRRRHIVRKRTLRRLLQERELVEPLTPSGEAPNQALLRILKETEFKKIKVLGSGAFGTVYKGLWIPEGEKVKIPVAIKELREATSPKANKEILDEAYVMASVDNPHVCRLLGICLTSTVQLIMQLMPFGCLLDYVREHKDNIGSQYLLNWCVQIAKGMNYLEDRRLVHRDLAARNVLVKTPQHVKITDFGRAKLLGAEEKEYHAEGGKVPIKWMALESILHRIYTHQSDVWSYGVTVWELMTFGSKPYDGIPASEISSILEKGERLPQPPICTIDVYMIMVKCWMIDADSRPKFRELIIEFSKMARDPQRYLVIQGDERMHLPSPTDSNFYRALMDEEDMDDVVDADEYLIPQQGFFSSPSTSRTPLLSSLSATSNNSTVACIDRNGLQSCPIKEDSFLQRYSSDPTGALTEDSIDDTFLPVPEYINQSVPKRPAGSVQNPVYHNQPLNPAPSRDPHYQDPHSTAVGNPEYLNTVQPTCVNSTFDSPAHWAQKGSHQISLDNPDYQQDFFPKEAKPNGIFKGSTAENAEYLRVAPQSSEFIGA
Values below are the log10 of the recorded IC50, with nM as the unit.

**Query** Find the measured log10 IC50 of CC(C)n1nc(N)c2cnc(Nc3ccnc(-c4cnn(S(=O)(=O)C5CC5)c4)n3)cc21 and report it.
**Result** 1.81

###

Catalogue of Papp A→B values
test: Apparent permeability across apical to basolateral side in dog MDCK cells; assay type: ADME, cell-based, Canis lupus familiaris
Give the number; ×10⁻⁶ cm/s is assumed, so skip it.

Reference set (5 entries):
> print(dat)
                                   molecule  readout.kind  readout.value
1  CC(C)n1nc(N)c2cnc(Nc3ccnc(-c4cnn(S(=O)(=O)C5CC5)c4)n3)cc21      Papp A→B             16
2  CC(C)n1cc(C(=O)NC2COC2)c2cnc(Nc3ccnc(-c4cnn(S(=O)(=O)C5CC5)c4)n3)cc21      Papp A→B            2.3
3  Cc1nc2cnc(Nc3ccnc(N4CC[C@H](O)[C@H](F)C4)n3)cc2n1C(C)C (racemic)      Papp A→B             19
4  CC(C)n1nc(N2CC(C(C)(C)O)C2)c2cnc(Nc3ccnc(-c4cnn(S(=O)(=O)C5CC5)c4)n3)cc21      Papp A→B             20
5  CC(C)n1nc(N2CC(CO)C2)c2cnc(Nc3ccnc(-c4cnn(S(=O)(=O)C5CC5)c4)n3)cc21      Papp A→B            8.1

**Query** Find the measured Papp A→B of CC(C)n1cc(C(=O)NC2CCOCC2)c2cnc(Nc3ccnc(-c4cnn(S(=O)(=O)C5CC5)c4)n3)cc21 and report it.
**Result** 4.6

**Query** Find the measured Papp A→B of CC[C@H](C)n1nc(N2CC(C(C)(C)O)C2)c2cnc(Nc3ccnc(-c4cnn(S(=O)(=O)C5CC5)c4)n3)cc21 and report it.
**Result** 8.9

**Query** Find the measured Papp A→B of Cc1nc2cnc(Nc3ccnc(-c4cnn(S(=O)(=O)C5CC5)c4)n3)cc2n1C(C)C and report it.
**Result** 21

###

assay: Oral bioavailability in dog at 2 mg/kg; type: ADME, organism-based, Canis lupus familiaris; conditions: in vivo
readout-kind: bioavailability (%)
Give the number; % is assumed, so skip it.

**Query** Find the measured bioavailability of CC[C@H](C)n1nc(N2CC(C(C)(C)O)C2)c2cnc(Nc3ccnc(-c4cnn(S(=O)(=O)C5CC5)c4)n3)cc21 and report it.
**Result** 30

###

target: Epidermal growth factor receptor (Homo sapiens, UniProt P00533, L858R); test: Inhibition of human EGFR L858R mutant assessed as apparent inhibition constant using Fl-EEPLYWSFPAKKK-CONH2 peptide as substrate preincubated for 30 mins followed by addition of substrate and measured after 30 mins by Morrison plot analysis; conditions: read-out: Ki(app)
Sequence (P00533 25-1210 L858R limits assumed): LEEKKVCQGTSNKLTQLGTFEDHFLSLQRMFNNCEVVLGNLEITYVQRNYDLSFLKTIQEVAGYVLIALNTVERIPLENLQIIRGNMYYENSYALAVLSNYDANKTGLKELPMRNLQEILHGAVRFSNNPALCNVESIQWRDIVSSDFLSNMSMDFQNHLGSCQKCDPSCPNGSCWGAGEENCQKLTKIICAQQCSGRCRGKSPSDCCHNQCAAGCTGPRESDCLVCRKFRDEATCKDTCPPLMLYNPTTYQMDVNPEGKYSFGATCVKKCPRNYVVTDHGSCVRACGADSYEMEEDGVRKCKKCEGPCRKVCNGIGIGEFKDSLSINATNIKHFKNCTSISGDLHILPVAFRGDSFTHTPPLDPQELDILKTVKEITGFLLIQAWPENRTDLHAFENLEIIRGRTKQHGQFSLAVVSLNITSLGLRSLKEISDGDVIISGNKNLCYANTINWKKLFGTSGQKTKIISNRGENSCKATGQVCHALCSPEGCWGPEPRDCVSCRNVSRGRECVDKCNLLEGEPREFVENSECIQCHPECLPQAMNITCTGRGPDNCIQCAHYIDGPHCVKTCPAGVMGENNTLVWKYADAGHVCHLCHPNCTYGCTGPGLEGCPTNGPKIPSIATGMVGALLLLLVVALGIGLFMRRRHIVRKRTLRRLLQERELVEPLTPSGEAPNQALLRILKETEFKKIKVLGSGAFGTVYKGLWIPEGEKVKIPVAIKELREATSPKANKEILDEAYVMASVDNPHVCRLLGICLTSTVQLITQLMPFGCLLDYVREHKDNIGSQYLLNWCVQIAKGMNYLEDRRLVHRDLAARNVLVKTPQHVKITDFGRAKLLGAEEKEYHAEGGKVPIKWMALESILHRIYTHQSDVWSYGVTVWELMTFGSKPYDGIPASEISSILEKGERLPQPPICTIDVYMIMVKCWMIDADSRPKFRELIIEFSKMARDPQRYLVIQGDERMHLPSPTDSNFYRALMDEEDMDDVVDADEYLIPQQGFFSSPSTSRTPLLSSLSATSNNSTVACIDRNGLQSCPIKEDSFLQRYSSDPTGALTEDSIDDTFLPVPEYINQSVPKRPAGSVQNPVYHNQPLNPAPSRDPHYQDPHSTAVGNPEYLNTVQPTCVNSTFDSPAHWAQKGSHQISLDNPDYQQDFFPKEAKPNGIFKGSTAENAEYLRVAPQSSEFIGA
Catalogue of Ki values

Reference set (5 entries):
> print(dat)
                                   molecule  readout.value
1  CO[C@H]1CCN(c2nccc(Nc3cc4c(cn3)nc(C)n4C(C)C)n2)C[C@H]1F         608 nM
2  Cc1nc2cnc(Nc3ccnc(-c4cnn(S(=O)(=O)C5CC5)c4)n3)cc2n1C(C)C          43 nM
3  Cc1nc2cnc(Nc3ccnc(-c4cnn(S(C)(=O)=O)c4)n3)cc2n1C(C)C         126 nM
4  CC(C)n1cc(C(=O)NC2COC2)c2cnc(Nc3ccnc(-c4cnn(S(=O)(=O)C5CC5)c4)n3)cc21         6.4 nM
5  CC(C)n1cc(C(=O)NC2CCOCC2)c2cnc(Nc3ccnc(-c4cnn(S(=O)(=O)C5CC5)c4)n3)cc21         3.8 nM

**Query** Find the measured Ki of CC(C)n1cc(C(N)=O)c2cnc(Nc3ccnc(-c4cnn(S(=O)(=O)C5CC5)c4)n3)cc21 and report it.
**Result** 4.1 nM

**Query** Find the measured Ki of Cc1nc2cnc(Nc3ccnc(N4CC[C@H](O)[C@H](F)C4)n3)cc2n1C(C)C (racemic) and report it.
**Result** 1100 nM

**Query** Find the measured Ki of COC1CCN(c2nccc(Nc3cc4c(cn3)c(C(N)=O)cn4C(C)C)n2)CC1 and report it.
**Result** 363 nM

###

Catalogue of pKi values
biological target: Epidermal growth factor receptor (Homo sapiens, UniProt P00533, L858R/T790M); experiment: Inhibition of human EGFR T790M/L858R double mutant assessed as apparent inhibition constant using Fl-EEPLYWSFPAKKK-CONH2 as peptide substrate preincubated for 30 mins followed by addition of substrate and measured after 30 mins by Morrison plot analysis; conditions: read-out: Ki(app)
// scale note: pKi = -log10(conc_M); give the bare number

**Query** State measured pKi of the compound Cc1nc2cnc(Nc3ccnc(-c4cnn(CC5CC5)c4)n3)cc2n1C(C)C with Epidermal growth factor receptor (Homo sapiens, UniProt P00533, L858R/T790M).
**Result** 7.47

**Query** State measured pKi of the compound CO[C@H]1CCN(c2nccc(Nc3cc4c(cn3)nc(C)n4C(C)C)n2)C[C@H]1F with Epidermal growth factor receptor (Homo sapiens, UniProt P00533, L858R/T790M).
**Result** 8.44

**Query** State measured pKi of the compound CC(C)n1cc(C(N)=O)c2cnc(Nc3ccnc(-c4cnn(S(=O)(=O)C5CC5)c4)n3)cc21 with Epidermal growth factor receptor (Homo sapiens, UniProt P00533, L858R/T790M).
**Result** 8.96

**Query** State measured pKi of the compound CC(C)n1nc(N)c2cnc(Nc3ccnc(-c4cnn(S(=O)(=O)C5CC5)c4)n3)cc21 with Epidermal growth factor receptor (Homo sapiens, UniProt P00533, L858R/T790M).
**Result** 9.10

**Query** State measured pKi of the compound CC(C)n1cc(C(=O)NC2COC2)c2cnc(Nc3ccnc(-c4cnn(S(=O)(=O)C5CC5)c4)n3)cc21 with Epidermal growth factor receptor (Homo sapiens, UniProt P00533, L858R/T790M).
**Result** 8.96

**Query** State measured pKi of the compound COC1CCN(c2nccc(Nc3cc4c(cn3)c(C(N)=O)cn4C(C)C)n2)CC1 with Epidermal growth factor receptor (Homo sapiens, UniProt P00533, L858R/T790M).
**Result** 8.28

**Query** State measured pKi of the compound CC(C)n1nc(N2CCOCC2)c2cnc(Nc3ccnc(-c4cnn(S(=O)(=O)C5CC5)c4)n3)cc21 with Epidermal growth factor receptor (Homo sapiens, UniProt P00533, L858R/T790M).
**Result** 8.68

**Query** State measured pKi of the compound CC(C)n1cc(C(=O)NC2CCOCC2)c2cnc(Nc3ccnc(-c4cnn(S(=O)(=O)C5CC5)c4)n3)cc21 with Epidermal growth factor receptor (Homo sapiens, UniProt P00533, L858R/T790M).
**Result** 8.92

###

assay: Apparent permeability across apical to basolateral side in dog MDCK cells; format: ADME, cell-based, Canis lupus familiaris
readout-kind: Papp A→B (nm/s)
Give the number; nm/s is assumed, so skip it.

**Query** Find the measured Papp A→B of CC[C@@H](C)n1nc(N2CC(C(C)(C)O)C2)c2cnc(Nc3ccnc(-c4cnn(S(=O)(=O)C5CC5)c4)n3)cc21 and report it.
**Result** 190

**Query** Find the measured Papp A→B of CC(C)c1nn(C(C)C)c2cc(Nc3ccnc(-c4cnn(S(=O)(=O)C5CC5)c4)n3)ncc12 and report it.
**Result** 39

**Query** Find the measured Papp A→B of CC(C)n1nc(N2CCC(O)CC2)c2cnc(Nc3ccnc(-c4cnn(S(=O)(=O)C5CC5)c4)n3)cc21 and report it.
**Result** 120

**Query** Find the measured Papp A→B of COC1CCN(c2nccc(Nc3cc4c(cn3)c(C(N)=O)cn4C(C)C)n2)CC1 and report it.
**Result** 260

**Query** Find the measured Papp A→B of CC(C)n1cc(C(N)=O)c2cnc(Nc3ccnc(-c4cnn(S(=O)(=O)C5CC5)c4)n3)cc21 and report it.
**Result** 45

**Query** Find the measured Papp A→B of CC(C)n1nc(N2CCOCC2)c2cnc(Nc3ccnc(-c4cnn(S(=O)(=O)C5CC5)c4)n3)cc21 and report it.
**Result** 120
